Target: human M4 muscarinic acetylcholine receptor (Homo sapiens, UniProt P08173)
Sequence (P08173 1-479): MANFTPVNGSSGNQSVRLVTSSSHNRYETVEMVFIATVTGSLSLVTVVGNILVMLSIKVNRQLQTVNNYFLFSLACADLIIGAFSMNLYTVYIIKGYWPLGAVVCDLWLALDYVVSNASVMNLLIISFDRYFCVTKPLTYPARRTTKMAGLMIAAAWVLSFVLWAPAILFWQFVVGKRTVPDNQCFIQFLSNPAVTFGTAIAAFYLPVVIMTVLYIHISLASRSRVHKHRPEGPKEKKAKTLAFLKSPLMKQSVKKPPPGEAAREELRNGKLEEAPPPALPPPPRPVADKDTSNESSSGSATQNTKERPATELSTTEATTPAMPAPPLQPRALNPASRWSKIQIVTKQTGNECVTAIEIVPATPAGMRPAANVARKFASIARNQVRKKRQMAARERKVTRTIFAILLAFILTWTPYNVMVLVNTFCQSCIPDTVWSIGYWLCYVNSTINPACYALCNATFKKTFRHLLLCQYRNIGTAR
Test: human FLIPR-based M4 PAM assay (CHO-K1 cells with human M4 receptor and Gαqi5, calcium dye fluorescence, acetylcholine at 20% of maximum response)
Settings: inflection point (IP) of 4 parameter logistic dose response curve, human M4 receptor + Gαqi5, FLIPR Tetra
Exercise: for every item that follows, state its recorded log10(EC50).
Note the log scale: values are log10 of EC50 expressed in nM.

## Task What does the data say about its log10(EC50)? Entry: COc1ccc(OC2CCN(c3nc4c(cc3C)C(O)CC4)CC2)cn1 (single isomer, unassigned) [Example 71A]
## Result 3.49

## Task What does the data say about its log10(EC50)? Entry: "COc1ccc(OC2CCN(c3nc4c(cc3C)CN(C(=O)CCN(C)C)C4)CC2)cn1"
## Result 2.70

## Task What does the data say about its log10(EC50)? Entry: "COc1ccc(OC2CCN(c3nc4c(cc3C)CN(C(=O)C3CC(F)(F)C3)C4)CC2)cn1"
## Result 2.10

## Task What does the data say about its log10(EC50)? Entry: "COC(=O)N1Cc2cc(C)c(N3CCC(Oc4ccc(OC)nc4)CC3)nc2C1"
## Result 2.19

## Task What does the data say about its log10(EC50)? Entry: "COc1ccc(OC2CCN(c3nc4c(cc3C)CN(S(=O)(=O)C3CC3)C4)CC2)cn1"
## Result 2.23

## Task What does the data say about its log10(EC50)? Entry: "COc1ccc(OC2CCN(c3nc4nccn4c(Cl)c3C)CC2)cn1"
## Result 2.77

## Task What does the data say about its log10(EC50)? Entry: "Cc1cc2c(=O)[nH][nH]c2nc1N1CCC(Oc2cccc(C#N)c2)CC1"
## Result 1.76

## Task What does the data say about its log10(EC50)? Entry: "Cc1cc2c(nc1N1CCC(Oc3cccc(C#N)c3)CC1)COC2=O"
## Result 1.15

## Task What does the data say about its log10(EC50)? Entry: "Cc1cn2c(=O)[nH]nc2nc1N1CCC(OCC2CCCC2)CC1"
## Result 2.38

## Task What does the data say about its log10(EC50)? Entry: "COc1ccc(OC2CCN(c3nc4c(cc3C)C(=O)CC4)CC2)cn1"
## Result 1.62

## Task What does the data say about its log10(EC50)? Entry: COc1ccc(OC2CCN(c3nc4c(cc3C)C(=O)C(C)C4)CC2)cn1 (stereo not drawn)
## Result 2.08

## Task What does the data say about its log10(EC50)? Entry: "COc1ccc(OC2CCN(c3nc4c(cc3C)CNC4)CC2)cn1"
## Result 2.54

## Task What does the data say about its log10(EC50)? Entry: "COc1ccc(OC2CCN(c3nc4c(cc3C)C(=O)OC4)CC2)cn1"
## Result 1.34

## Task What does the data say about its log10(EC50)? Entry: "COc1ccc(OC2CCN(c3nc4[nH]c(=O)[nH]c4cc3C)CC2)cn1"
## Result 3.07

## Task What does the data say about its log10(EC50)? Entry: "Cc1cn2c(=O)n(C)nc2nc1N1CCC(Oc2ccc3c(cnn3C)c2)CC1"
## Result 2.05

## Task What does the data say about its log10(EC50)? Entry: "Cc1cn2c(=O)n(C)nc2nc1N1CCC(OCC2CCCC2)CC1"
## Result 2.86

## Task What does the data say about its log10(EC50)? Entry: "COCCC(=O)N1Cc2cc(C)c(N3CCC(Oc4ccc(OC)nc4)CC3)nc2C1"
## Result 2.34

## Task What does the data say about its log10(EC50)? Entry: "COc1ccc(OC2CCN(c3nc4c(cc3C)c(=O)[nH]n4C)CC2)cn1"
## Result 2.40

## Task What does the data say about its log10(EC50)? Entry: COc1ccc(OC2CCN(c3nc4c(cc3C)C(=O)OC4C)CC2)cn1 (racemic) [Example 29B]
## Result 1.73

## Task What does the data say about its log10(EC50)? Entry: "COc1ccc(OC2CCN(c3nc4nnc(C(F)(F)F)n4cc3C)CC2)cn1"
## Result 3.49

## Task What does the data say about its log10(EC50)? Entry: "COc1ccc(OC2CCN(c3nc4c(cc3C)CN(C(=O)C3CC3)C4)CC2)cn1"
## Result 2.18

## Task What does the data say about its log10(EC50)? Entry: "COc1ccc(OC2CCN(c3nc4c(cc3C)CNC4=O)CC2)cn1"
## Result 2.29

## Task What does the data say about its log10(EC50)? Entry: "Cc1cn2c(=O)n(C)nc2nc1N1CCC(OCC2(C)CC2)CC1"
## Result 1.90

## Task What does the data say about its log10(EC50)? Entry: "COc1ccc(OC2CCN(c3nc4c(cc3C)COC4=O)CC2)cn1"
## Result 2.18

## Task What does the data say about its log10(EC50)? Entry: "COc1ccc(OC2CCN(c3nc4c(cc3C)CN(C(=O)CN(C)C)C4)CC2)cn1"
## Result 2.38

## Task What does the data say about its log10(EC50)? Entry: "Cc1cn2c(=O)[nH]nc2nc1N1CC[C@@H](Oc2ccc3c(cnn3C)c2)[C@@H](F)C1"
## Result 1.79

## Task What does the data say about its log10(EC50)? Entry: "Cc1cc2c(=O)[nH][nH]c2nc1N1CCC(Oc2ccc3cn[nH]c3c2)CC1"
## Result 1.59

## Task What does the data say about its log10(EC50)? Entry: "COc1ccc(OC2CCN(c3nc4nn(CCO)c(=O)n4cc3C)CC2)cn1"
## Result 1.84

## Task What does the data say about its log10(EC50)? Entry: "CCOC(=O)N1Cc2cc(C)c(N3CCC(Oc4ccc(OC)nc4)CC3)nc2C1"
## Result 2.20

## Task What does the data say about its log10(EC50)? Entry: COc1ccc(OC2CCN(c3nc4c(cc3C)C(=O)OC4CO)CC2)cn1 (stereo not drawn)
## Result 1.53
